Would you mind telling me the reported Clotting Time of each entry?
test system: rats; assay: Clotting time in rats, different date, time intervals and doses (Table 24); assay type: in vivo, rat; conditions: 10 mg/kg 24 hr
Numbers only, in min.

Please review the entries below; each comes with its answer.
[[record]]
molecule = "CC(=O)Oc1ccccc1C(=O)O[C@H](C)[C@H](N)C(=O)O"
display_unit = "min"
quantitative_readout = 3.6

[[record]]
molecule = "CC(=O)Oc1ccccc1C(=O)O [acetylsalicylic acid, reference compound]"
display_unit = "min"
quantitative_readout = 4.4

[[record]]
molecule = "CC(=O)Oc1ccccc1C(=O)OC[C@H](N)C(=O)O"
display_unit = "min"
quantitative_readout = 4.4


The record that follows has no Clotting Time shown yet.
[in] Could you share what Clotting Time was measured for CC(=O)Oc1ccccc1C(=O)OC1CN[C@H](C(=O)O)C1 (stereo partly shown) , tested on rats?
[out] 3.3

====

assay: Solubility of propofol and its amino acid esters in water; conditions: water, solubility in water
measured-metric: solubility

[[record]]
molecule = "CC(C)c1cccc(C(C)C)c1OC(=O)CN.Cl"
measured_metric = "solubility"
result = "> 100 mg/mL"


[in] solubility for CC(C)c1cccc(C(C)C)c1OC(=O)C1CCCN1.Cl (stereo in doubt) ?
[out] > 100 mg/mL

====

Would you mind telling me the reported Clotting Time of each entry?
system: rats; test: Clotting time in rats, different date, time intervals and doses (Table 24); format: in vivo, rat; conditions: 20 mg/kg 2 hr
Answers are plain numbers, in min.

[[record]]
compound = "CC(=O)Oc1ccccc1C(=O)OC1CN[C@H](C(=O)O)C1 (stereo partly shown)"
quantitative_readout = 4.2

[[record]]
compound = "CC(=O)Oc1ccccc1C(=O)O[C@H](C)[C@H](N)C(=O)O"
quantitative_readout = 5.3

[[record]]
compound = "CC(=O)Oc1ccccc1C(=O)OC[C@H](N)C(=O)O"
quantitative_readout = 3.8


The record that follows has no Clotting Time shown yet.
[in] Could you share what Clotting Time was measured for CC(=O)Oc1ccccc1C(=O)O [acetylsalicylic acid, reference compound] , tested on rats?
[out] 5.4
